target: Indoleamine 2,3-dioxygenase 1 (Homo sapiens)
Sequence (P14902 whole entry): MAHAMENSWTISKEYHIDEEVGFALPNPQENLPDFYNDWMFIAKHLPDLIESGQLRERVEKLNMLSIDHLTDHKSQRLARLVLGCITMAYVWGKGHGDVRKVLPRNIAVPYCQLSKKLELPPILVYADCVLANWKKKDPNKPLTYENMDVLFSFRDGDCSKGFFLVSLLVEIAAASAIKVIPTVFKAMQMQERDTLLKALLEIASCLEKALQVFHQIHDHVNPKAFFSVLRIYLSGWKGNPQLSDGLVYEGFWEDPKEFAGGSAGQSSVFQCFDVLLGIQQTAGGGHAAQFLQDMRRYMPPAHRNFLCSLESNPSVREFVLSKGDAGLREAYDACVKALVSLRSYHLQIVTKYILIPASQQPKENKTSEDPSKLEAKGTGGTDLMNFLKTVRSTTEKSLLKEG
pKi: −log10 of the molar value.
property: pKi

# compound, target-or-test-system, value-observed
records = [
    ("COc1c(C(C)=O)c(C)cc2cc3c(c(O)c12)C(=O)C(C)(C)C(=O)C3(C)C [GARVEATIN C]", "Indoleamine 2,3-dioxygenase 1 (Homo sapiens)", 5.92),
]
